Record set of pKi for target or system carbonic anhydrase (Helicobacter pylori).
pKi: −log10 of the molar value.
Measured endpoint: pKi

INSERT INTO assay_data (molecule, subject_of_test, measured_endpoint, observed) VALUES
  ('NS(=O)(=O)c1nc2ccc(O)cc2s1', 'carbonic anhydrase (Helicobacter pylori)', 'pKi', 6.76),
  ('NS(=O)(=O)c1ccc(S(=O)(=O)Nc2cccc3c(Cl)c[nH]c23)cc1', 'carbonic anhydrase (Helicobacter pylori)', 'pKi', 6.36),
  ('Nc1ccc(S(N)(=O)=O)cc1Br', 'carbonic anhydrase (Helicobacter pylori)', 'pKi', 6.33),
  ('NS(=O)(=O)c1ccc(CO)cc1', 'carbonic anhydrase (Helicobacter pylori)', 'pKi', 6.06),
  ('Nc1ccc(S(=O)(=O)NCc2ccc(S(N)(=O)=O)cc2)cc1', 'carbonic anhydrase (Helicobacter pylori)', 'pKi', 6.91),
  ('NNc1ccccc1S(N)(=O)=O', 'carbonic anhydrase (Helicobacter pylori)', 'pKi', 6.25),
  ('Nc1ccc(S(N)(=O)=O)cc1Cl', 'carbonic anhydrase (Helicobacter pylori)', 'pKi', 6.40),
  ('NS(=O)(=O)c1ccc(CCO)cc1', 'carbonic anhydrase (Helicobacter pylori)', 'pKi', 5.94),
  ('NCc1ccc(S(N)(=O)=O)cc1 [MAFENIDE]', 'carbonic anhydrase (Helicobacter pylori)', 'pKi', 6.08),
  ('Cn1nc(S(N)(=O)=O)sc1=N', 'carbonic anhydrase (Helicobacter pylori)', 'pKi', 6.31),
  ('Nc1ccc(S(N)(=O)=O)cc1F', 'carbonic anhydrase (Helicobacter pylori)', 'pKi', 5.88),
  ('NS(=O)(=O)c1nnc(-c2ccccc2Cl)s1', 'carbonic anhydrase (Helicobacter pylori)', 'pKi', 7.08),
  ('Cc1ccc(S(N)(=O)=O)cc1 [P-TOLUENESULFONAMIDE]', 'carbonic anhydrase (Helicobacter pylori)', 'pKi', 6.33),
  ('CCN[C@H]1CN(CCCOC)S(=O)(=O)c2sc(S(N)(=O)=O)cc21 [BRINZOLAMIDE]', 'carbonic anhydrase (Helicobacter pylori)', 'pKi', 6.61),
  ('Nc1nccc(Nc2ccc(S(N)(=O)=O)cc2)n1', 'carbonic anhydrase (Helicobacter pylori)', 'pKi', 7.14),
  ('Nc1ccc(S(N)(=O)=O)cc1 [SULFANILAMIDE]', 'carbonic anhydrase (Helicobacter pylori)', 'pKi', 6.37),
  ('CCOc1ccc2nc(S(N)(=O)=O)sc2c1 [ETHOXZOLAMIDE]', 'carbonic anhydrase (Helicobacter pylori)', 'pKi', 6.81),
  ('NS(=O)(=O)c1ccc(C(=O)O)cc1 [CARZENIDE]', 'carbonic anhydrase (Helicobacter pylori)', 'pKi', 5.97),
  ('Nc1cc(Cl)c(S(N)(=O)=O)cc1S(N)(=O)=O', 'carbonic anhydrase (Helicobacter pylori)', 'pKi', 7.39),
  ('NCCc1ccc(S(N)(=O)=O)cc1', 'carbonic anhydrase (Helicobacter pylori)', 'pKi', 5.99),
  ('Nc1ccc(S(N)(=O)=O)cc1I', 'carbonic anhydrase (Helicobacter pylori)', 'pKi', 6.30),
  ('Nc1cc(C(F)(F)F)c(S(N)(=O)=O)cc1S(N)(=O)=O [2,4-DISULFAMYLTRIFLUOROMETHYLANILINE]', 'carbonic anhydrase (Helicobacter pylori)', 'pKi', 6.40),
  ('Nc1ccc(S(=O)(=O)NCCc2ccc(S(N)(=O)=O)cc2)cc1', 'carbonic anhydrase (Helicobacter pylori)', 'pKi', 7.02),
  ('Nc1ccc(S(=O)(=O)Nc2nnc(S(N)(=O)=O)s2)cc1', 'carbonic anhydrase (Helicobacter pylori)', 'pKi', 6.67),
  ('NS(=O)(=O)c1nnc(NS(=O)(=O)c2ccccc2)s1 [BENZOLAMIDE]', 'carbonic anhydrase (Helicobacter pylori)', 'pKi', 6.54);
